- System: SAU 29213
- TEST DESCRIPTION: MIC, broth microdilution (CLSI), substance alone or ATB combined with compound at 4 or 8 μg/mL
- Assay type: cell-based, S. aureus
- RUN PARAMETERS: SAU 29213; with Example 9 @4 μg/ml
RESULT TYPE: MIC ATB combined with Example 9 @4 μg/ml

* CC1(C)S[C@@H]2[C@H](NC(=O)[C@H](N)c3ccc(O)cc3)C(=O)N2[C@H]1C(=O)O [AMX, Amoxicillin, reference compound] | <0.031 µg/mL
* C[C@@H](O)[C@H]1C(=O)N2C(C(=O)O)=C(SCCN=CN)C[C@H]12 [IMI] | <0.031 µg/mL
* CO/N=C(\C(=O)N[C@@H]1C(=O)N2C(C(=O)O)=C(COC(N)=O)CS[C@H]12)c1ccco1 [FUR, Cefuroxime, reference compound] | <0.031 µg/mL
* CN[C@H](CC(C)C)C(=O)N[C@H]1C(=O)N[C@@H](CC(N)=O)C(=O)N[C@H]2C(=O)N[C@H]3C(=O)N[C@H](C(=O)N[C@H](C(=O)O)c4cc(O)cc(O)c4-c4cc3ccc4O)[C@H](O)c3ccc(c(Cl)c3)Oc3cc2cc(c3O[C@@H]2O[C@H](CO)[C@@H](O)[C@H](O)[C@H]2O[C@H]2C[C@](C)(N)[C@H](O)[C@H](C)O2)Oc2ccc(cc2Cl)[C@H]1O [VAN] | <0.0039 µg/mL
* NCC[C@H](O)C(=O)N[C@@H]1C[C@H](N)[C@@H](O[C@H]2O[C@H](CN)[C@@H](O)[C@H](O)[C@H]2O)[C@H](O)[C@H]1O[C@H]1O[C@H](CO)[C@@H](O)[C@H](N)[C@H]1O [AN, Amikacin, reference compound] | <0.031 µg/mL
* CC(=O)NC[C@H]1CN(c2ccc(N3CCOCC3)c(F)c2)C(=O)O1 [LZD] | <0.0078 µg/mL
* CN(C)c1cc(NC(=O)CNC(C)(C)C)c(O)c2c1C[C@H]1C[C@H]3[C@H](N(C)C)C(O)=C(C(N)=O)C(=O)[C@@]3(O)C(O)=C1C2=O [TGC] | <0.031 µg/mL

----------
- Test system: KPN BAA-1898
- TEST DESCRIPTION: MIC, broth microdilution (CLSI), substance alone or ATB combined with compound at 4 or 8 μg/mL
- Format: cell-based, K. pneumoniae
- RUN PARAMETERS: KPN BAA-1898; with Example 13 at 8 μg/ml
RESULT TYPE: MIC ATB combined with Example 13 @8 μg/ml (µg/mL)

• CO/N=C(\C(=O)N[C@@H]1C(=O)N2C(C(=O)O)=C(COC(N)=O)CS[C@H]12)c1ccco1 [FUR, Cefuroxime, reference compound] = 8
• NCC[C@H](O)C(=O)N[C@@H]1C[C@H](N)[C@@H](O[C@H]2O[C@H](CN)[C@@H](O)[C@H](O)[C@H]2O)[C@H](O)[C@H]1O[C@H]1O[C@H](CO)[C@@H](O)[C@H](N)[C@H]1O [AN, Amikacin, reference compound] = 0.25
• CN(C)c1cc(NC(=O)CNC(C)(C)C)c(O)c2c1C[C@H]1C[C@H]3[C@H](N(C)C)C(O)=C(C(N)=O)C(=O)[C@@]3(O)C(O)=C1C2=O = 1
• C[C@@H](O)[C@H]1C(=O)N2C(C(=O)O)=C(SCCN=CN)C[C@H]12 = 0.5

----------
- System: KPN BAA-1898
- TEST DESCRIPTION: MIC, broth microdilution (CLSI), substance alone or ATB combined with compound at 4 or 8 μg/mL
- Type: cell-based, K. pneumoniae
- RUN PARAMETERS: KPN BAA-1898; with Example 1 @8 μg/ml
RESULT TYPE: MIC ATB combined with Example 1 @8 μg/ml

* NCC[C@H](O)C(=O)N[C@@H]1C[C@H](N)[C@@H](O[C@H]2O[C@H](CN)[C@@H](O)[C@H](O)[C@H]2O)[C@H](O)[C@H]1O[C@H]1O[C@H](CO)[C@@H](O)[C@H](N)[C@H]1O [AN, Amikacin, reference compound] | 0.25 µg/mL
* C=CC1=C(C(=O)O)N2C(=O)[C@@H](NC(=O)/C(=N\OCC(=O)O)c3csc(N)n3)[C@H]2SC1 [FIX, Cefixime, reference compound] | 0.25 µg/mL
* C[C@@H](O)[C@H]1C(=O)N2C(C(=O)O)=C(SCCN=CN)C[C@H]12 | 2 µg/mL
* CN(C)c1cc(NC(=O)CNC(C)(C)C)c(O)c2c1C[C@H]1C[C@H]3[C@H](N(C)C)C(O)=C(C(N)=O)C(=O)[C@@]3(O)C(O)=C1C2=O | 1 µg/mL

----------
- Tested on: PAE UFR48
- TEST DESCRIPTION: MIC, broth microdilution (CLSI), substance alone or ATB combined with compound at 4 or 8 μg/mL
- Format: cell-based, P. aeruginosa
- RUN PARAMETERS: substance alone; PAE UFR48
RESULT TYPE: MIC (µg/mL)

- O=C1N2CC(n3ccnn3)=C[C@H](C2)N1OS(=O)(=O)[O-].[Na+]: 32
- NC[C@@H]1CC(=NOCC(N)=O)[C@@H]2CN1C(=O)N2OS(=O)(=O)[O-].O=C(O)C(F)(F)F.[Na+]: 4

----------
- System: SAU 29213
- TEST DESCRIPTION: MIC, broth microdilution (CLSI), substance alone or ATB combined with compound at 4 or 8 μg/mL
- Format: cell-based, S. aureus
- RUN PARAMETERS: ATB FOS; compound @4 μg/ml; SAU 29213
Entries and their MIC ATB combined with compound values follow.
RESULT TYPE: MIC ATB combined with compound (µg/mL)

- NC[C@@H]1C(c2ncco2)=C[C@@H]2CN1C(=O)N2OS(=O)(=O)[O-].O=C(O)C(F)(F)F.[Na+]: 0.5
- NCCON=C1C[C@@H](C(N)=O)N2C[C@@H]1N(OS(=O)(=O)[O-])C2=O.[Na+]: 0.5
- NC[C@@H]1CC(=NOCC(N)=O)[C@@H]2CN1C(=O)N2OS(=O)(=O)[O-].O=C(O)C(F)(F)F.[Na+]: 2

----------
Entries and their FIC index min values follow.
- Tested on: ECL P99
- TEST DESCRIPTION: Fractional Inhibitory Concentration Index, checkerboard assay
- Format: cell-based, E. cloacae
- RUN PARAMETERS: compound +FOS
- Description: Method 2: Determination of the Fractional Inhibitory Concentration Index Serial 2-fold dilutions of each antibiotic tested were prepared in ca-MHB and mixed in each well of a 96-well microtiter plate so that each row (and column) contained a fixed amount of one agent and increasing amounts of the second agent. […] MICs were determined after overnight incubation, and the fractional inhibitory concentration (FIC) index was calculated for each well. […]
RESULT TYPE: FIC index min

* NC[C@@H]1C(c2ncco2)=C[C@@H]2CN1C(=O)N2OS(=O)(=O)[O-].O=C(O)C(F)(F)F.[Na+] | 0.16
* NC[C@H]1C=C(c2cnco2)[C@@H]2CN1C(=O)N2OS(=O)(=O)[O-].O=C(O)C(F)(F)F.[Na+] (relative stereo) | ≤0.3125
* NCCn1c2c(sc1=O)C1CN(C2)C(=O)N1OS(=O)(=O)[O-].[Na+] (stereo not shown) | ≤0.13
* O=C1N2CC(c3ncco3)=C[C@H](C2)N1OS(=O)(=O)[O-].[Na+] | ≤0.19
* NC[C@@H]1CC(=NOCC(N)=O)[C@@H]2CN1C(=O)N2OS(=O)(=O)[O-].O=C(O)C(F)(F)F.[Na+] | ≤0.25
* O=C1N2CC(c3cccnc3)=CC(C2)N1OS(=O)(=O)[O-].[Na+] (stereo not shown) | ≤0.28
* NCCON=C1C[C@@H](C(N)=O)N2C[C@@H]1N(OS(=O)(=O)[O-])C2=O.[Na+] | ≤0.14

----------
- Tested on: SPN 49619
- TEST DESCRIPTION: MIC, broth microdilution (CLSI), substance alone or ATB combined with compound at 4 or 8 μg/mL
- Assay type: cell-based, S. pneumoniae
- RUN PARAMETERS: ATB MEM; SPN 49619; Example @8 μg/ml
RESULT TYPE: MIC ATB combined with Example

* O=C1N2CC(n3cccn3)=CC(C2)N1OC(F)(F)C(=O)[O-].[Li+] (centres unmarked) | <=0.031 μg/mL
* O=C1N2CC(n3ccnn3)=CC(C2)N1OS(=O)(=O)[O-].[Na+] (centres unmarked) | <=0.031 μg/mL
* O=C1N2CC(n3cncn3)=CC(C2)N1OS(=O)(=O)[O-].[Na+] (centres unmarked) | <0.031 µg/mL
* NCCCn1c2c(sc1=O)C1CN(C2)C(=O)N1OS(=O)(=O)O (centres unmarked) | <0.031 µg/mL
* O=C1N2CC(n3cccn3)=CC(C2)N1OS(=O)(=O)[O-].[Na+] (centres unmarked) | <=0.031 μg/mL
